src = patent US20220339143A1

- Experiment summary: Single dose PK in healthy subjects (Cohorts 1, 2, S1 and S2), plasma
- Format: in vivo, human
- Conditions used: human, plasma, intravenous, 56 mg; 9 hr; read-out: Plasma concentration, Median
Quantity kind: concentration at 9 h

>  <Cpd smiles>
COC(=O)N1CCC[C@H](NS(C)(=O)=O)[C@@H]1CO[C@H]1CC[C@@H](c2ccccc2)CC1

>  <Quantity kind>
concentration at 9 h

>  <Experimental result>
112 ng/mL

$$$$

====

- Experiment summary: Single dose PK in healthy subjects (Cohorts 1, 2, S1 and S2), plasma
- Format: in vivo, human
- Conditions used: human, plasma, intravenous, 56 mg; 4 hr; read-out: Plasma concentration, Q3

>  <Molecule>
COC(=O)N1CCC[C@H](NS(C)(=O)=O)[C@@H]1CO[C@H]1CC[C@@H](c2ccccc2)CC1 [Compound A]

>  <concentration at 4 h [ng/mL]>
120

$$$$
